Assay: Primary qHTS for Inhibitors of ATXN expression; further: nearly all actives have a fitted effect of over 55% in size
Conditions: HEK-293 ATXN2-luciferase reporter, luminescence, 24 h; series mostly up to 57 µM
The campaign covered roughly 360,000 compounds. About 2,600 (0.72%) were called active. Inconclusive results (about 5%) are left out. The call rests on the fitted dose curve; in most records, active means well fitted inhibition curve with a large enough effect; inconclusive means small, poorly fitted or top-dose-only effect; inactive means no such curve, though single readings can be large or run the other way. For the sample, actives were picked, then their nearest neighbours and some compounds at random.
Outcomes: active, inactive

COc1cccc(CNCCc2c[nH]c3ccccc23)c1OCc1ccccc1F    active
CC(=O)NC(c1cccs1)c1cc(Br)c2cccnc2c1O (centres undefined)    active
COCC(C)NS(=O)(=O)c1ccc(N2CCCCS2(=O)=O)cc1 (centres undefined)    inactive
COc1cc(OC)c(NC(=O)c2cnc(N3CCCC3)nc2C)cc1Cl    inactive
CCC(C)Cn1c(O)cc2nn(-c3nc4ccccc4s3)c(=O)c-2c1C (centres undefined)    active
Cc1cc([N+](=O)[O-])ccc1NCc1cccc([N+](=O)[O-])c1    inactive
COc1ccc2cc1Oc1ccc(cc1)C[C@H]1c3cc(c(OC)cc3CCN1C)Oc1c(O)c(OC)cc3c1[C@H](C2)N(C)CC3    active
Cc1cc(C)n(-c2c(F)c(F)c(COC(=O)c3ccccc3)c(F)c2F)n1    inactive
Cc1cc(-n2nc(C)cc2C)n2ncc(-c3ccccc3)c2n1    inactive
Fc1ccc2[nH]c3c(N4CCSCC4)ncnc3c2c1    active
C[C@@H]1CCC[C@H](C)N1CCCC(O)(c1ccccc1)c1ccccn1 (some centres undefined)    inactive
CC1(C(=O)NCc2ccco2)Cc2c(-c3ccc4c(c3)OCO4)ccnc2O1 (centres undefined)    inactive
O=C(OCC(O)CO)c1ccccc1Nc1ccnc2c(C(F)(F)F)cccc12 (centres undefined)    inactive
CC(C)(C)c1cc(C(=O)O)c(NC(=O)Nc2ccc3[nH]ncc3c2)s1    inactive
CN[C@@H]1[C@@H](O)[C@@H](O[C@@H]2[C@H](O)[C@H](O[C@H]3OC(CN)=CC[C@H]3N)[C@@H](N)C[C@H]2N)OCC1(C)O (some centres undefined)    inactive
CN(C)c1ccc(NC(=O)CSc2nc(-c3ccco3)cc(C(F)(F)F)n2)cc1    inactive
CC=CC[C@@H](C)C(=O)[C@H]1C(=O)N[C@@H](C(C)C)C(=O)N(C)CC(=O)N(C)[C@@H](CC(C)C)C(=O)N[C@@H](C(C)C)C(=O)N(C)[C@@H](CC(C)C)C(=O)N[C@@H](C)C(=O)N[C@H](C)C(=O)N(C)[C@@H](CC(C)C)C(=O)N(C)[C@@H](CC(C)C)C(=O)N(C)[C@@H](C(C)C)C(=O)N1C    inactive
CCC(=O)Nc1c(C(=O)N2CCN(c3ccc(F)cc3)CC2)oc2ccccc12    inactive
CC1CCCCN1S(=O)(=O)c1ccc(F)c(C(=O)Nc2ccccc2C(F)(F)F)c1 (centres undefined)    inactive
CCOC(=O)c1cnc(-n2nc(C)cc2C)nc1NNc1cc(C)nc(-c2ccccc2)n1    active
CCCOc1cccc(C(=O)Nc2cccc(NC(=O)c3ccc(C(C)(C)C)cc3)c2)c1    inactive
Clc1cccc(-n2ncc3c(NCCc4ccccc4)ncnc32)c1    inactive
CCOC(=O)C1CCN(c2csc3ccc(C)cc3c2=O)CC1    inactive
O=C1NC[C@H](Cc2ccc(O)cc2)N(C[C@@H]2CCCN2C[C@H](Cc2ccccc2)N2C[C@H](Cc3ccccc3)N(CC3CCCCC3)C(=O)C2=O)C1=O    inactive
O=C(CSc1nc2c(c(=O)[nH]1)CN(Cc1ccc3c(c1)OCO3)CC2)Nc1cc(F)ccc1F    inactive
CN(C)CCN(C(=O)C1=COCCO1)c1nc2ccc(Cl)cc2s1    inactive
CC(C)(C)OC(=O)N1CCC(c2c(C(=O)Nc3ccc4c(c3)OCO4)cnn2-c2ccccc2)CC1    inactive
O=C(Nc1cccc2cccnc12)c1cccc2c(Br)cccc12    inactive
Cc1cc(C)cc(Nc2ncnc3onc(-c4ccc(F)cc4)c23)c1    inactive
O=C(NC(=O)c1ccccc1)Nc1ccccc1O    inactive
CC(=O)N(CN1C(=O)C2CC=CCC2C1=O)c1cccc(Cl)c1 (centres undefined)    inactive
Cc1cn(C)c(CC(=O)NCc2ccc(Cl)cc2)c1C(=O)O    inactive
Cc1cc(O)ccc1-c1cc(C(=O)NCc2cc(C(F)(F)F)cc(C(F)(F)F)c2)[nH]n1    inactive
Cc1ccc(NC(=O)C(Cc2ccccc2)NS(=O)(=O)c2ccc3c(c2)oc(=O)n3C)cc1C (centres undefined)    inactive
CCOC(=O)c1cccc(NC(=O)c2cc(CN3CCCC3)on2)c1    inactive
Cc1nc2c(OCc3ccc(Cl)cc3Cl)cccn2c1N(C)CC1CC1    inactive
CCCCN1CCC(CNC(=O)c2c3n(c4ccccc24)CCCO3)CC1    inactive
N#C/C=C/N1CCN(Cc2ccc3c(c2)OCO3)CC1    inactive
COc1ccc(-c2nnc(SCC(=O)Nc3ccccc3C)o2)cc1OC    inactive

* * *

Experiment: Primary qHTS for Inhibitors of ATXN expression; further: nearly all actives have a fitted effect of over 55% in size
Settings: HEK-293 ATXN2-luciferase reporter, luminescence, 24 h; series mostly up to 57 µM
Experimental: University of Utah School of Medicine, Salt Lake City, Utah Spinocerebellar ataxia type 2 (SCA2) is a multisystem neurodegenerative disease caused by a dominantly acting mutation leading to expansion of a polyQ domain in the ataxin-2 protein (ATXN2). […] 7; Detection; Fluorescence; ViewLux plate reader (PerkinElmer). […] 10; Detection; Luminescence; ViewLux plate reader (PerkinElmer). […] 10. Luminescence is then measured on the ViewLux imager equipped with a clear emission filter using a 2 sec exposure. […]
About 2,600 (0.72%) of roughly 360,000 compounds were called active. About 5% were inconclusive and are not listed. The call rests on the fitted dose curve; in most records, active means well fitted inhibition curve with a large enough effect; inconclusive means small, poorly fitted or top-dose-only effect; inactive means no such curve, though single readings can be large or run the other way. What follows is part of a selection rich in actives, with near analogues and random picks from the rest.
Outcomes: active, inactive

O=C(N/N=C/c1ccccn1)C12CC3CC(CC(C3)C1)C2    inactive
Cc1nnc(N/N=C/c2ccccn2)[nH]c1=O    active
O=C(NC1CCCC1)C1c2ccccc2OCC(=O)N1CC(F)(F)F (stereo unspecified)    inactive
Cc1cccc(NC(=O)CSc2nc3c(oc4ccccc43)c(=O)n2-c2ccc(F)cc2)c1    inactive
CCCCN(CC)C(=S)Nc1ccc2nc3n(c(=O)c2c1)CCCCC3    inactive
CSc1nc(-c2ccc(F)cc2)nc2c1Cc1c(CO)cnc(C)c1O2    inactive
CN(c1ccccc1)S(=O)(=O)c1ccc(Cl)c(C(=O)NCCc2c[nH]c3ccccc23)c1    inactive
CCNC(=O)c1cc2n(n1)CCCN(Cc1ccc(C)cc1)C2=O    inactive
O=C(COc1ccc(Cl)cc1Cl)N/N=C/c1ccccn1    inactive
CN(C)CCNC(=O)c1ccc(Cl)c2cc3ccccc3nc12    active
CCOc1ccc(Nc2oc(/C=C/c3ccc(F)cc3)nc2C#N)cc1    inactive

* * *

Test: Primary qHTS for Inhibitors of ATXN expression; further: nearly all actives have a fitted effect of over 55% in size
Details: HEK-293 ATXN2-luciferase reporter, luminescence, 24 h; series mostly up to 57 µM
Among all 360,000 compounds or so, about 2,600 (0.72%) were called active. Roughly 5% stayed inconclusive and do not appear here. Calls come from the whole dose curve; as a rule, active = well fitted inhibition curve with a large enough effect; inconclusive = small, poorly fitted or top-dose-only effect; inactive = no such curve, though single readings can be large or run the other way. The sample holds actives, similar compounds and a random draw of the others, so the mix is not that of the screen.
Outcomes: label 1 = active, label 0 = inactive

O=C(NC1CCCCC1)c1ccc(Cn2c(SCc3ccccc3)nc3cccnc32)cc1    label 0
CC(C)(C)c1ccc(Oc2ccc(N)cc2)cc1    label 1
CC(C)OCCCn1c(SCC(=O)c2ccccc2)nc2c(sc3ccccc32)c1=O    label 0
CCc1ccc(NC(=O)c2sc3nc4c(cc3c2N)CN(CC)CC4)cc1    label 0
COc1ccccc1CNC(=O)c1ccc(NC(=O)N2CC(C)Sc3ccccc32)cc1 (stereo unspecified)    label 0
N=C1C(c2nc3ccccc3s2)=C(O)CN1NC(=O)c1ccc([N+](=O)[O-])cc1    label 0
COc1ccccc1NC(=O)C1=C(C)Nc2nc(SCC(=O)c3ccc(C)cc3)nn2C1c1ccccc1C (stereo unspecified)    label 0
COc1cc(NC(=O)c2[nH]cnc2C(N)=O)cc(C(=O)Nc2cccc(C(F)(F)F)c2)c1    label 1
CCCC(O)(CCC)C(=O)NN(C(=O)CCl)c1cccc(C)c1    label 1
CCOC(=O)[C@]12CCCC=C1N(Cc1cccc3ccccc13)C(=O)[C@H](CC(=O)NCC13CC4CC(CC(C4)C1)C3)C2    label 0
O=C(O)c1cc([N+](=O)[O-])c(Nc2cccc3ccccc23)c([N+](=O)[O-])c1    label 0

* * *

Assay: Primary qHTS for Inhibitors of ATXN expression; further: nearly all actives have a fitted effect of over 55% in size
Conditions: HEK-293 ATXN2-luciferase reporter, luminescence, 24 h; series mostly up to 57 µM
Experimental: University of Utah School of Medicine, Salt Lake City, Utah Spinocerebellar ataxia type 2 (SCA2) is a multisystem neurodegenerative disease caused by a dominantly acting mutation leading to expansion of a polyQ domain in the ataxin-2 protein (ATXN2). […] 7; Detection; Fluorescence; ViewLux plate reader (PerkinElmer). […] 10; Detection; Luminescence; ViewLux plate reader (PerkinElmer). […] 10. Luminescence is then measured on the ViewLux imager equipped with a clear emission filter using a 2 sec exposure. […]
Hit rate of the full screen: of about 360,000 compounds, about 2,600 (0.72%) were called active. Inconclusive results (about 5%) are left out. Calls follow the shape of the dose curve; as a rule, active = well fitted inhibition curve with a large enough effect; inconclusive = small, poorly fitted or top-dose-only effect; inactive = no such curve, though single readings can be large or run the other way. The sample holds actives, similar compounds and a random draw of the others, so the mix is not that of the screen.
Outcomes: active, inactive

O=C1Nc2ccccc2NC(c2ccc3c(c2)OCO3)=C1N(Cc1ccc(F)cc1)C(=O)c1ccco1    inactive
O=C(Nc1ccccn1)C1CCN(S(=O)(=O)c2ccccc2)CC1    inactive
COc1c(C)cc(C(O)c2ncc(-c3cccc(C(F)(F)F)c3)[nH]2)cc1C (stereo not given)    inactive
COc1ccc(NC(=O)C(=O)NCc2ccco2)cc1    inactive
COc1ccccc1CNC(=O)CS(=O)(=O)c1cccc2nsnc12    inactive
CC1CCCCC1NC(=O)/C(C#N)=C/C=C/c1ccccc1[N+](=O)[O-] (stereo not given)    active
Oc1ccc2ccccc2c1N=Nc1nccs1    active
COc1ccc(CS(=O)/C(Cl)=C(/Cl)C(=O)Nc2ccc(OC)nc2)cc1 (stereo not given)    active
O=C1CC(c2ccc(F)cc2F)c2cc3c(cc2N1)OCO3 (stereo not given)    inactive
COc1ccc(C(O)c2nc(-c3ccc(OC)nc3)cs2)cc1 (stereo not given)    inactive
COc1ccc(C2CC(c3ccccc3)=NN2C(=O)c2ccc(Cl)c([N+](=O)[O-])c2)cc1 (stereo not given)    active
COc1ccc(Sc2ccc(NC(=O)c3cccc(Cl)c3)cc2C#N)cc1    inactive
CCc1ccc2c(c1)NC(=O)C2(C)Cc1ccc(OC(F)(F)F)cc1 (stereo not given)    active
O=C(NC1CCCC1)C1CCN(C(=O)Nc2cccc(Cl)c2)CC1    inactive
COc1ccc(C2CC(c3ccc([N+](=O)[O-])cc3)=NN2C(C)=O)cc1 (stereo not given)    inactive
